- Test system: SW-620 colon
- Assay protocol: NCI tumour cell line growth inhibition, 48 h
Provide the reported TGI of each item.

Compound	Endpoint label	Experimental value
CCN(CC)Cc1sc2nc3ccccc3n2c1-c1ccc(OC)cc1	TGI	> 100 µM

// for each compound below, give its TGI
1. COCCOCOc1ccc(OCOCCOC)c2c1C(=O)c1ccccc1C2=O
2. CCOC(=O)C(=O)Nc1cc(Cl)ccc1Cl
3. O=C1NC(=S)N(c2ccccc2)C1=O
4. CN(CCCCCl)P(=O)(OCCS(=O)(=O)CC(NC(=O)CCC(N)C(=O)O)C(=O)NC(C(=O)O)c1ccccc1)OCC1OC(n2cc(F)c(=O)[nH]c2=O)CC1O (stereo unspecified)
5. CCC[C@H](C)C[C@H](C)C[C@H](C)/C=C(\C)[C@@H](O)[C@@H](C)C(=O)CC

["> 100 µM", "> 100 µM", "> 100 µM", "> 64.4 µM", "43 µM"]

* * *

- Tested on: SW-620 colon
- Assay protocol: NCI tumour cell line growth inhibition, 48 h
What TGI was measured for each of the following?

>>> df
                                   compound  experimental_value
0        Nc1ccc(CCN2CCN(CCCc3ccccc3)CC2)cc1            > 100 µM
1  COc1ccc(/C=N/NC(=O)Cn2c(-c3ccc(S(C)(=O)=O)cc3)nc3cc(Cl)ccc32)cc1             > 50 µM
2           CNc1ccc(N)cc1C(=O)N1CCC[C@H]1CO            > 100 µM
3  COc1ccc(-n2cnc3c(NC(CCSC)C(=O)O)ncnc32)cc1 (stereo not given)            > 100 µM

Now let's try a different one.
Record request: TGI value, item O=c1[nH]cnc2c(C3NC(CO)C(O)C3O)c[nH]c12 (stereo not given)
> 100 µM

* * *

- Test system: LOX IMVI melanoma
- Assay protocol: NCI tumour cell line growth inhibition, 48 h
I'd appreciate it if you could supply TGI values for the items below.

Recorded results for 2 molecules are shown here.
>>> print(df.to_string())
                           molecule  experimental_value
0  Cc1ccc(NC(=O)c2ccccc2C(=O)O)cc1C            > 100 µM
1     CCN(CC)CCNCc1cc(Cl)cc2c1OCOC2             > 10 µM

Hi team, please reply with TGI for each item in this list.
1. Nc1nc(Cl)c(N)c(NCC2(CO)CC(CCCc3ccccc3)C2)n1 (stereo unspecified)
2. COc1ccc(/C=C2\CN(C)C/C(=C\c3ccc(OC)c(OC)c3OC)C2=O)c(OC)c1OC
3. CCO/C=C1\N=C(c2ccccc2Br)OC1=O
4. Nc1ccc(C(=O)NN2C(=O)C(Cl)C2c2ccccc2)cc1 (stereo unspecified)
5. Cc1cccc(NC(=O)c2sc3nc4c(cc3c2N)CN(Cc2ccccc2)CC4)c1C
6. COc1ccc(C=O)c(NC(=O)C(C)C)c1
7. CCCCCCCCCCCCCP(=O)(O)NCC(N)=O
8. Cc1cc(O)c(C(C)C)cc1C1(c2cc(C(C)C)c(O)cc2C)OC(=O)c2ccccc21

1: 98.7 µM; 2: 0.319 µM; 3: > 100 µM; 4: > 100 µM; 5: > 50 µM; 6: > 100 µM; 7: > 100 µM; 8: 3.53 µM

// batch mode: one TGI value per listed entry
1. CC1=NN(C(=O)CSc2nc3ccc(I)cc3c(=O)n2Cc2ccccc2)C(=O)C1
2. COc1ccc(C(=O)N2c3ccccc3Sc3ccccc32)c(OC)c1
3. O=[As](O)(O)c1ccc(N=Nc2ccc(O)cc2)cc1

> 100 µM
> 100 µM
> 100 µM

For each of the molecules below, note its TGI.
1. COC(=O)c1cnn2c1n[n+]([O-])c1ccccc12
2. [N-]=[N+]=C1C(=O)C2CC3CC(C2)CC1C3
3. OC(c1ccc(-c2ccccc2)cc1)C(F)(F)c1nc2ccccc2o1 (stereo unspecified)
4. COc1nc(N)c(N=CC(OC(C)=O)C(OC(C)=O)C(COC(C)=O)OC(C)=O)c(=O)n1C (stereo unspecified)
5. COc1cc2c(cc1OC)C1(c3ccc(Cl)cc3)ON=C(c3ccccc3)N1CS2 (stereo unspecified)
6. COC(CN1C=C(Sc2ccccc2)CC1)OC
7. BrCc1ccc(CBr)cc1
8. CC(C)(CC(O)C#N)/[N+]([O-])=[N+](\[O-])C(C)(C)CC(O)C#N (stereo unspecified)

> 100 µM
> 100 µM
> 100 µM
> 100 µM
> 100 µM
56.3 µM
> 100 µM
42.7 µM

Reference source for all entries: PubChem BioAssay (NCI)
